assay-comment: molar heat capacity at constant pressure
measurement-conditions: 288.15 K; 4000 kPa; Liquid; Small sample (50 mg) DSC
± gives the expanded uncertainty stated by the source.
readout-kind: molar heat capacity at constant pressure
# output: number + unit

Give a short answer stating reported molar heat capacity at constant pressure for CCCCCCCC[n+]1ccn(C)c1.F[B-](F)(F)F [1-methyl-3-octylimidazolium tetrafluoroborate] . 493.12 ± 7.6 J/K/mol

Look up and report measured molar heat capacity at constant pressure for this entry: CCCCn1cc[n+](C)c1.F[B-](F)(F)F [1-butyl-3-methylimidazolium tetrafluoroborate] 362.22 ± 5.6 J/K/mol

Dear colleague, please send me the reported molar heat capacity at constant pressure for CCCCCCn1cc[n+](C)c1.F[B-](F)(F)F [1-hexyl-3-methylimidazolium tetrafluoroborate] when you can. 425.08 ± 6.6 J/K/mol

Input CCn1cc[n+](C)c1.F[B-](F)(F)F [1-ethyl-3-methylimidazolium tetrafluoroborate] , output reported molar heat capacity at constant pressure. 301.73 ± 4.7 J/K/mol
